Origin of measurements: the Immune Epitope Database (IEDB)

Biological target: HLA-B*27:03
Test: IEDB peptide-MHC binding, purified MHC/direct/fluorescence; filed as Kd, often an IC50 or EC50 that approximates it; bounds were set here for any values at or beyond the usual limits of such assays
Details: source organism: Mycobacterium tuberculosis str. Haarlem
readout-label: Kd

sequence-chain: EILWDVIPF
readout-label: Kd
result: ≥ 20 µM

---

Target: HLA-A*02:02
Assay: IEDB peptide-MHC binding, purified MHC/competitive/radioactivity; filed as Kd, often an IC50 or EC50 that approximates it; bounds were set here for any values at or beyond the usual limits of such assays
Conditions: source organism: Homo sapiens
pKd: −log10 of the molar value.
readout-label: pKd

sequence-chain: LLSGAGEHL
target-of-assay: HLA-A*02:02
quantitative-result: 8.24

---

Biological target: HLA-B*58:01
Assay: IEDB peptide-MHC binding, purified MHC/direct/fluorescence; filed as Kd, often an IC50 or EC50 that approximates it; bounds were set here for any values at or beyond the usual limits of such assays
Conditions: source organism: Orthohantavirus andesense
pKd: −log10 of the molar value.
readout-label: pKd

sequence-chain: EKLKKKSAF
target-of-assay: HLA-B*58:01
result: ≤ 4.70

---

Biological target: HLA-A*29:02
Assay: IEDB peptide-MHC binding, purified MHC/direct/fluorescence; filed as Kd, often an IC50 or EC50 that approximates it; bounds were set here for any values at or beyond the usual limits of such assays
Settings: source organism: Orthohantavirus andesense
pKd: −log10 of the molar value.
readout-label: pKd

sequence-chain: EKLKKKSAF
result: ≤ 4.70

---

Target: HLA-A*02:16
Experiment: IEDB peptide-MHC binding, purified MHC/competitive/fluorescence; filed as Kd, often an IC50 or EC50 that approximates it; bounds were set here for any values at or beyond the usual limits of such assays
Settings: source organism: Vibrio cholerae V52

sequence-chain: IGYRLGMGK
target-of-assay: HLA-A*02:16
Kd: ≥ 20 µM

---

Measured pKd values are reported for all entries that follow.
Target: HLA-B*44:02
Experiment: IEDB peptide-MHC binding, purified MHC/competitive/radioactivity; filed as Kd, often an IC50 or EC50 that approximates it; bounds were set here for any values at or beyond the usual limits of such assays
Details: source organism: Mammarenavirus machupoense
pKd: −log10 of the molar value.

sequence-chain: DESKKEINLL
value-prefix: ≤
pKd: 4.15
--
sequence-chain: EEPVALLPLS
value-prefix: =
pKd: 5.07

---

Biological target: HLA-A*68:01
Assay: IEDB peptide-MHC binding, purified MHC/competitive/radioactivity; filed as Kd, often an IC50 or EC50 that approximates it; bounds were set here for any values at or beyond the usual limits of such assays
Conditions: source organism: Vaccinia virus WR
Could you mark each record true (1) if its Kd falls strictly under 500 nM, and false (0) if it equals or exceeds it?

sequence-chain: MSHVKSVTK
label: true (1)
//
sequence-chain: VSAKQLRTR
label: false (0)
//
sequence-chain: ITLKIIETY
label: false (0)
//
sequence-chain: SFKSINKVY
label: false (0)
//
sequence-chain: ETFKIDAVR
label: true (1)
//
sequence-chain: FSNTIQSYK
label: true (1)
//
sequence-chain: PVSMTYLYNK
label: false (0)
//
sequence-chain: CTDESRDRK
label: true (1)
//
sequence-chain: FSTSAADIK
label: true (1)
//
sequence-chain: SMDVLAEKK
label: false (0)
//
sequence-chain: VTGFMEEEIK
label: false (0)
//
sequence-chain: MMNRDKIPIY
label: false (0)
//
sequence-chain: MIIGHIGHHY
label: true (1)
//
sequence-chain: GADPNACDK
label: true (1)
//
sequence-chain: AVLSAATETY
label: false (0)
//
sequence-chain: SSKGLACYR
label: true (1)
//
sequence-chain: DSLLITNTK
label: true (1)
//
sequence-chain: FMEMFFDYNK
label: true (1)
//
sequence-chain: SIMETIDPVY
label: true (1)
//
sequence-chain: SAEDNYLAK
label: false (0)
//
sequence-chain: TFFSYLMKDK
label: true (1)
//
sequence-chain: YIYKSGKLVK
label: false (0)
//
sequence-chain: ISFKSINKVY
label: false (0)
//
sequence-chain: TISSESLVY
label: false (0)
//
sequence-chain: NIVTFINDY
label: false (0)
//
sequence-chain: TLNGIMMNER
label: false (0)
//
sequence-chain: TFIDVHIPK
label: true (1)
//
sequence-chain: IVTSLAIKNY
label: false (0)
//
sequence-chain: EMYPRHRYSK
label: true (1)
//
sequence-chain: KSISSIFGY
label: false (0)
//
sequence-chain: TQSVLCVKK
label: true (1)
//
sequence-chain: QFANVISKIY
label: false (0)
//
sequence-chain: TIQRFSSLR
label: true (1)
//
sequence-chain: LMIFISSFLL
label: true (1)
//
sequence-chain: ELALTDVEK
label: true (1)
//
sequence-chain: MMFINSTCY
label: true (1)
//
sequence-chain: SINSEYIESK
label: false (0)
//
sequence-chain: LAIKNYYRK
label: true (1)
//
sequence-chain: NVKKKNEGK
label: true (1)
//
sequence-chain: TIKYSNDNR
label: true (1)
//
sequence-chain: RLGLVLDDY
label: false (0)
//
sequence-chain: IIKSDHEFVK
label: false (0)
//
sequence-chain: SFSLESDSIK
label: false (0)
//
sequence-chain: SLVKKNKKR
label: false (0)
//
sequence-chain: ISKIYTLIYR
label: true (1)
//
sequence-chain: LFLLFLEITY
label: true (1)
//
sequence-chain: LLGDSDSVAK
label: false (0)
//
sequence-chain: SVPLPCQLMY
label: false (0)
//
sequence-chain: NISIIVLFQR
label: true (1)
//
sequence-chain: FVDINRNNK
label: true (1)
//
sequence-chain: QISRVNDLNR
label: true (1)
//
sequence-chain: ESRPFDLIKK
label: true (1)
//
sequence-chain: RVVVQIDPEY
label: false (0)
//
sequence-chain: ELVTRKCPQK
label: false (0)
//
sequence-chain: NFFTELENK
label: false (0)
//
sequence-chain: DVKASMLEKY
label: false (0)
//
sequence-chain: IFVDTMSIY
label: false (0)
//
sequence-chain: NIILSKIPY
label: false (0)
//
sequence-chain: WLHECTDESR
label: true (1)
//
sequence-chain: DIKLDAVLDR
label: true (1)
//
sequence-chain: RFVKFNDYR
label: true (1)
//
sequence-chain: KVSAQNISFK
label: false (0)
//
sequence-chain: MSMGDIITY
label: true (1)
//
sequence-chain: NLDPDNKMSY
label: false (0)
//
sequence-chain: ITFLRPVLK
label: true (1)
//
sequence-chain: EIIGGNDMY
label: true (1)
//
sequence-chain: NAPIKEFKAK
label: true (1)
//
sequence-chain: EIKDRILSY
label: true (1)
//
sequence-chain: KLQARNIQK
label: true (1)
//
sequence-chain: WSRIGTAATK
label: false (0)
//
sequence-chain: LTNKHCLNNY
label: false (0)
//
sequence-chain: EVFGSTGDY
label: true (1)
//
sequence-chain: YISRDELWAR
label: true (1)
//
sequence-chain: NTMCTEETKR
label: true (1)
//
sequence-chain: TILEYLYIMR
label: true (1)
//
sequence-chain: FLKSGAVVK
label: true (1)
//
sequence-chain: TIEILRNYLR
label: true (1)
//
sequence-chain: VLPHLCLDY
label: false (0)
//
sequence-chain: VFCNDHKGNR
label: false (0)
//
sequence-chain: LTALLSCIR
label: true (1)

---

Molecular target: HLA-B*51:01
Assay: IEDB peptide-MHC binding, purified MHC/direct/fluorescence; filed as Kd, often an IC50 or EC50 that approximates it; bounds were set here for any values at or beyond the usual limits of such assays
Conditions: source organism: Mammarenavirus lassaense
pKd: −log10 of the molar value.
readout-label: pKd

sequence-chain: CGRSCTSSL
target-of-assay: HLA-B*51:01
result: ≤ 4.70

---

Measured IC50 values are reported for all entries that follow.
Target: HLA-A*24:02
Assay: IEDB peptide-MHC binding, purified MHC/competitive/fluorescence; bounds were set here for any values at or beyond the usual limits of such assays
Conditions: source organism: Variola virus

sequence-chain: PKAQREIFS
target-of-assay: HLA-A*24:02
IC50 [µM]: 30.1

sequence-chain: IFSAWISHR
target-of-assay: HLA-A*24:02
IC50 [µM]: 0.0409

sequence-chain: ISHRPVVLT
target-of-assay: HLA-A*24:02
IC50 [µM]: 1.37

---

Target: HLA-A*02:06
Assay: IEDB peptide-MHC binding, purified MHC/competitive/fluorescence; filed as Kd, often an IC50 or EC50 that approximates it; bounds were set here for any values at or beyond the usual limits of such assays
Conditions: source organism: Salmonella enterica subsp. enterica serovar Typhimurium str. LT2

sequence-chain: FPASHMATY
Kd / µM: 1.29
